B1: Tudor domain-containing protein 3, residues 554 to 611; numbered along this chain, Q9H7E2 (parent)
chain: KMWKPGDECFALYWEDNKFYRAEVEALHSSGMTAVVKFIDYGNYEEVLLSNIKPIQTE

Variants of: B1
Experiment: abundance fitness (aPCA) (normalised: wild type 0, dead -1); higher = more abundant; growth selection in yeast, the domain comes from the species named
Settings: Homo sapiens
Group membership follows abundance fitness per the scheme low class (below -0.2), middle class (-0.2 to below -0.05), high class (-0.05 or more)

E23P
low class
S29G
middle class
W14C
high class
K1N
high class
K53A
low class
Y44E
high class
L27C
middle class
W3I
middle class
A26C
middle class
A26G
middle class
E46L
low class
Y44G
low class
A22M
low class
G42E
high class
S50Y
low class
M2Q
middle class
T57A
high class
G42D
high class

Taken from the Human Domainome abundance scans (Beltran et al. 2025).
